System: E-tag antibody
Assay: ELISA analysis of phage on antibody raised against ETAG (positive control)
Settings: peptide binding to E-tag antibody; phage ELISA units read at 405 nm
What ETAG (OD) was measured for each of the following?
Supply the numeric figure in OD, leaving out any unit text.

Requested read-out: ETAG (OD). Entry: VSFAHDWGRWWYQWEVG (DGI-2-20R-4-G22; listed as Escherichia coli) 12.9

Requested read-out: ETAG (OD). Entry: SLLCVVCRPVSGGRALGGVP (DGI-2-20F-PP-B42; listed as Escherichia coli) 21.5

Requested read-out: ETAG (OD). Entry: RRTQPAYRSGADDRTSGFYCYVTSALSAGAWMPFLPRRLA (DGI-2-40F-3-A12; listed as Escherichia coli) 4.6

Requested read-out: ETAG (OD). Entry: WFTHVVEKIF [DGI-2-40F-3-A4] 6.7

Requested read-out: ETAG (OD). Entry: SLFERSARSRYHGSPDCNGS (DGI-2-20F-PP-A3; listed as Escherichia coli) 12.9

Requested read-out: ETAG (OD). Entry: GNKCFPPHDLFWDPCDQLQS (DGI-2-20R-4-F6; listed as Escherichia coli) 13.2

Requested read-out: ETAG (OD). Entry: VWRDWVNGTVGLRNREKPGV (DGI2-20R-3-A5; listed as Escherichia coli) [DGI-2-20R-3-A5] 14.9

Requested read-out: ETAG (OD). Entry: DSEA*RVWYSGFLRRLGHMC (DSEARVWYSGFLRRLGHMC; DGI-2-20F-PP-F7; listed as Escherichia coli) 3.3

###

Tested on: lactate dehydrogenase (LDH)
Assay: ELISA analysis of phage on LDH (irrelevant, non-specific target)
Type: binding
Settings: peptide binding to LDH polypeptide (non-specific binding); phage ELISA units read at 405 nm
Please mark True if the recorded LDH (OD) is equal to or greater than 1 OD, and False if it falls below.

Hi, just wondering whether RDHRYVGWGRATFRHDQSVW (DGI-2-20F-PP-H1; listed as Escherichia coli) shows LDH (OD) of 1 OD or higher. True

Hi, just wondering whether GAIRLSGAAWTASRTGGRAS (DGI-2-20F-PP-E7; listed as Escherichia coli) shows LDH (OD) of 1 OD or higher. False

Hi, just wondering whether VWRDWVNGTVGLRNREKPGV (DGI2-20R-3-A5; listed as Escherichia coli) [DGI-2-20R-3-A5] shows LDH (OD) of 1 OD or higher. True

Hi, just wondering whether VVGYAQGDGLEGGLGSSRDGS (DGI-2-20F-PP-D8; listed as Escherichia coli) shows LDH (OD) of 1 OD or higher. True

Hi, just wondering whether GSTRLRVTVRFCSETGTPGC (DGI-2-20F-PP-G6; listed as Escherichia coli) shows LDH (OD) of 1 OD or higher. True

Hi, just wondering whether GGDLGEQGVQLCPDVVRGGSL (DGI-2-20F-PP-A7; listed as Escherichia coli) shows LDH (OD) of 1 OD or higher. False

Hi, just wondering whether SIILAGCVWVMPCGQNLGGV (DGI-2-20F-PP-C4; listed as Escherichia coli) shows LDH (OD) of 1 OD or higher. False

Hi, just wondering whether LSLLSVVVRSMGASAPQRQV (DGI-2-20F-3-A7; listed as Escherichia coli) shows LDH (OD) of 1 OD or higher. False

Hi, just wondering whether LAPMFLQNQVRTWAASRRPLPAGPSNARCETGSLSPWVPC (DGI-2-40F-3-B11; listed as Escherichia coli) shows LDH (OD) of 1 OD or higher. False

Hi, just wondering whether WFTHVVEKIF [DGI-2-40F-3-A4] shows LDH (OD) of 1 OD or higher. False

Hi, just wondering whether RRGVCEIFTGWCVGQTNERP (DGI-2-20R-4-H626; listed as Escherichia coli) shows LDH (OD) of 1 OD or higher. True

Hi, just wondering whether PKDGAAFKGSDFIQGGQTVMERAPALWWRDGGGQWEAPST (DGI-2-40F-3-B72; listed as Escherichia coli) shows LDH (OD) of 1 OD or higher. False

Hi, just wondering whether VLCLE#ALGLSGLGWRVVVGP (VLCLEALGLSGLGWRVVVGP; DGI-2-20F-PP-G4; listed as Escherichia coli) shows LDH (OD) of 1 OD or higher. True

Hi, just wondering whether LSRIWRGVIESAREVESRGI (DGI-2-20F-3-B1; listed as Escherichia coli) shows LDH (OD) of 1 OD or higher. False
